System: bovine microtubule-associated protein (MAP)-rich tubulin
Type: biochemical
test parameters: 0.3 uM
recorded metric: Tubulin Polym. % inhibition at 0.3 uM

CN[C@H](C(=O)N[C@H](C(=O)N(C)[C@H](/C=C(\C)C(=O)N1CCC[C@H]1C(=O)O)C(C)C)C(C)(C)C)C(C)(C)c1cccc(C)c1; 95%
C/C(=C\[C@H](C(C)C)N(C)C(=O)[C@@H](NC(=O)[C@H](O)C(C)(C)c1ccccc1)C(C)(C)C)C(=O)O; 21%
CN[C@@H](C(=O)N[C@H](C(=O)N(C)[C@H](/C=C(\C)C(=O)N1CCN(Cc2ccccc2)CC1)C(C)C)C(C)(C)C)C(C)(C)c1ccc(C)c(C)c1; 11%
CN[C@H](C(=O)N[C@H](C(=O)N(C)[C@H](/C=C(/C)S(=O)(=O)O)C(C)C)C(C)(C)C)C(C)(C)c1ccccc1; 21%

Which Tubulin Polym. % inhibition at 0.3 uM value is on record for `CN[C@H](C(=O)N[C@H](C(=O)N(C)[C@@H](/C=C(\C)C(=O)OCc1ccc(OCc2ccccc2)cc1)C(C)C)C(C)(C)C)C(C)(C)c1ccccc1` ?
55%

Which Tubulin Polym. % inhibition at 0.3 uM value is on record for `CN[C@H](C(=O)N[C@H](C(=O)N(C)[C@H](/C=C(\C)C(=O)N1C[C@H](O)C[C@H]1C(=O)O)C(C)C)C(C)(C)C)C(C)(C)c1ccccc1` ?
96%

Which Tubulin Polym. % inhibition at 0.3 uM value is on record for `CN[C@H](C(=O)N[C@H](C(=O)N(C)[C@H](/C=C(\C)C(=O)N1CCN(Cc2ccccc2)CC1)C(C)C)C(C)(C)C)C(C)(C)c1ccccc1` ?
29%

Which Tubulin Polym. % inhibition at 0.3 uM value is on record for `CN[C@H](C(=O)N[C@H](C(=O)N(C)[C@H](/C=C(\C)C=O)C(C)C)C(C)(C)C)C(C)(C)c1ccc([S+](C)C)cc1.O=C(O)C(F)(F)F` ?
0%

Which Tubulin Polym. % inhibition at 0.3 uM value is on record for `CN[C@H](C(=O)N[C@H](C(=O)N(C)[C@H](/C=C(\C)C(=O)N1CCC[C@H]1C(=O)OC)C(C)C)C(C)(C)C)C(C)(C)c1cc(C)cc(C)c1` ?
66%

---

System: KB85
procedure details: cells
Assay type: cell-based
test parameters: 72 h, 3 days, SRB
As shown below, each of these compounds has a reported pIC50 value.
Value format note: pIC50 is -log10 of concentration (mol/L); just state the number.

CN[C@@H](C(=O)N[C@H](C(=O)N(C)[C@H](/C=C(\C)C(=O)O)C(C)C)C(C)(C)C)C12CC3CC(CC(C3)C1)C2; 6.24

Which pIC50 value is on record for `CN[C@H](C(=O)N[C@H](C(=O)N(C)[C@H](/C=C(\C)C(=O)N1C[C@H](O)C[C@H]1C(=O)OC)C(C)C)C(C)(C)C)C(C)(C)c1ccccc1` ?
6.94

Which pIC50 value is on record for `CN[C@H](C(=O)N[C@H](C(=O)N(C)[C@H](/C=C(\C)C(=O)N1CCC[C@H]1C(=O)N1CCC[C@H]1C(=O)NCc1ccccc1)C(C)C)C(C)(C)C)C(C)(C)c1ccc(C)c(C)c1` ?
7.71

Which pIC50 value is on record for `CN[C@H](C(=O)N[C@H](C(=O)N(C)[C@H](/C=C(\C)C(=O)N1CCC[C@@H]1C(=O)OC)C(C)C)C(C)(C)C)C(C)(C)c1ccccc1` ?
7.29

Which pIC50 value is on record for CCOC(=O)/C(C)=C/[C@H](C(C)C)N(C)C(=O)[C@@H](NC(=O)C(CC)C(C)(C)c1ccccc1)C(C)(C)C (stereo partly drawn) ?
5.44

Which pIC50 value is on record for C/C(=C\[C@H](C(C)C)N(C)C(=O)[C@@H](NC(=O)C(C(C)(C)c1ccccc1)S(C)(=O)=O)C(C)(C)C)C(=O)O (stereo partly drawn) ?
5.78

---

Test system: Colo205
procedure details: Cell survival assay (SRB), Colo205
Format: cell-based
test parameters: Homo sapiens, COLO 205, 72 h, Colo205 cells, 3 days
As shown below, each of these molecules has a reported IC50 value.
Please reply with the bare figure in µM and do not write the unit itself.

CSC(C(=O)N[C@H](C(=O)N(C)[C@H](/C=C(\C)C(=O)O)C(C)C)C(C)(C)C)C(C)(C)c1ccccc1 (stereo partly drawn); 0.28

Query molecule follows.
Which IC50 value is on record for C/C(=C\[C@H](C(C)C)N(C)C(=O)[C@@H](NC(=O)C(C(C)(C)c1ccccc1)S(C)(=O)=O)C(C)(C)C)C(=O)O (stereo partly drawn) ?
0.76

---

System: KBV1
procedure details: cells
Assay type: cell-based
test parameters: 3000 nM
recorded metric: KBV1 % inhibition @ 3000 nM

Example results:
CN[C@H](C(=O)N[C@H](C(=O)N(C)[C@H](/C=C(\C)C(=O)c1ncc[nH]1)C(C)C)C(C)(C)C)C(C)(C)c1ccccc1; 0%
CN[C@H](C(=O)N[C@H](C(=O)N(C)[C@H](/C=C(\C)S(=O)(=O)O)C(C)C)C(C)(C)C)C(C)(C)c1ccccc1; 0%
CN[C@H](C(=O)N[C@H](C(=O)N(C)[C@H](/C=C(\C)C(=O)NN)C(C)C)C(C)(C)C)C(C)(C)c1ccccc1; 23%

Query compound follows.
Which KBV1 % inhibition @ 3000 nM value is on record for `CN[C@H](C(=O)N[C@H](C(=O)N(C)[C@H](/C=C(\C)C(=O)NCc1ccc(-c2ccccc2)cc1)C(C)C)C(C)(C)C)C(C)(C)c1ccccc1` ?
29%

---

Test system: KB85
procedure details: cells
Assay type: cell-based
test parameters: 72 h, 3 days, SRB
Description: Cell Survival Assay: Standard Pharmacological Test Procedure. […] Compounds are incubated with cells for 3 days.
recorded metric: IC50 (nM)
Please reply with the bare figure in nM and do not write the unit itself.

Example results:
CN[C@@H](C(=O)N[C@H](C(=O)N(C)[C@H](/C=C(\C)C(=O)N1CCOCC1)C(C)C)C(C)(C)C)C(C)(C)c1cc(C)cc(C)c1 [Example 5]; 459
CO[C@@H](C(=O)N[C@H](C(=O)N(C)[C@H](/C=C(\C)C(=O)O)C(C)C)C(C)(C)C)C(C)(C)c1ccccc1 [Example 106]; 1230
CN[C@H](C(=O)N[C@H](C(=O)N(C)[C@H](/C=C(\C)C(=O)N1CCC[C@@H]1C(=O)O)C(C)C)C(C)(C)C)C(C)(C)c1ccccc1 [Example 43]; 1580
CN[C@H](C(=O)N[C@H](C(=O)N(C)[C@H](/C=C(\C)C(=O)N1CCC[C@H]1C(=O)O)C(C)C)C(C)(C)C)C(C)(C)c1ccccc1 [Example 36]; 205
CNC(C(=O)NC(C(=O)N(C)C(C=C(C)C(=O)CO)C(C)C)C(C)(C)C)C(C)(C)c1ccccc1 (stereo not drawn) [Example 90]; 68

Query compound follows.
Which IC50 value is on record for CN[C@H](C(=O)N[C@H](C(=O)N(C)[C@H](/C=C(\C)C(=O)N1CCC[C@H]1C(=O)O)C(C)C)C(C)(C)C)C(C)(C)c1cccc(Cl)c1 [Example 24] ?
180

---

As shown below, each of these compounds has a reported inhibition at 3 µM value.
Test system: KBV1
procedure details: cells
Assay type: cell-based
test parameters: Homo sapiens, KB-V1, 3000 nM
Please reply with the bare figure in % and do not write the unit itself.

Example results:
CN[C@H](C(=O)N[C@H](C(=O)N(C)[C@H](/C=C(\C)C(=O)N1CCC[C@H]1C(=O)O)C(C)C)C(C)(C)C)C(C)(C)c1cccc(C)c1 [Example 22]; 12
CCOS(=O)(=O)/C=C/[C@H](C(C)C)N(C)C(=O)[C@@H](NC(=O)[C@@H](NC)C(C)(C)c1ccccc1)C(C)(C)C [Example 63]; 0
CCOC(=O)/C(C)=C/[C@H](C(C)C)N(C)C(=O)[C@@H](NC(=O)C(Cc1ccccc1)C(C)(C)c1ccccc1)C(C)(C)C (stereo partly drawn) [Example 95]; 15

Which inhibition at 3 µM value is on record for C/C(=C\[C@H](C(C)C)N(C)C(=O)[C@@H](NC(=O)[C@@H](C)C(C)(C)c1ccccc1)C(C)(C)C)C(=O)O [Example 92] ?
30

Which inhibition at 3 µM value is on record for CN[C@H](C(=O)N[C@H](C(=O)N(C)[C@H](/C=C(\C)C(=O)N1CCC[C@H]1C(=O)O)C(C)C)C(C)(C)C)C(C)(C)C1CCCCC1 [Example 46] ?
1

Which inhibition at 3 µM value is on record for CCOP(=O)(OCC)/C(C)=C/[C@H](C(C)C)N(C)C(=O)[C@@H](NC(=O)[C@@H](NC)C(C)(C)c1ccccc1)C(C)(C)C [Example 71] ?
0
